# maps each entry to its pIC50
- System: 521955-158-R2-J5-PDC complex spheroids, viability
- experiment.notes: Anticancer human tumor 521955-158-R2-J5-PDC patient-derived pancreatic carcinoma cell line growth inhibition [RAS]
- condition.label: curve of first compound; second compound 3.16 µM
pIC50: −log10 of the molar value.

{"columns": ["compound", "pIC50"],
 "data": [
  ["CC1(C)CCC(Nc2ncc(C(F)(F)F)c(-c3c[nH]c4c(P(C)(C)=O)c(C#N)ccc34)n2)CN1 (stereo unspecified) + C#Cc1c(F)ccc2cc(O)cc(-c3ncc4c(N5CC6CCC(C5)N6)nc(OCC56CCCN5CC(F)C6)nc4c3F)c12", "> 9.02"],
  ["CCc1c2c(nc3ccc(O)cc13)-c1cc3c(c(=O)n1C2)COC(=O)[C@]3(O)CC + C#Cc1c(F)ccc2cc(O)cc(-c3ncc4c(N5CC6CCC(C5)N6)nc(OCC56CCCN5CC(F)C6)nc4c3F)c12", "> 9.02"],
  ["CC(C)NCC(C(=O)N1CCN(c2ncnc3c2C(C)CC3O)CC1)c1ccc(Cl)cc1 (stereo unspecified) + C#Cc1c(F)ccc2cc(O)cc(-c3ncc4c(N5CC6CCC(C5)N6)nc(OCC56CCCN5CC(F)C6)nc4c3F)c12", "> 7.50"],
  ["C=CC(=O)N1CCN(c2nc(OCC3CCCN3C)nc3c(F)c(-c4nc(N)cc(C)c4C(F)(F)F)c(Cl)cc23)C(C)C1 (stereo unspecified) + C#Cc1c(F)ccc2cc(O)cc(-c3ncc4c(N5CC6CCC(C5)N6)nc(OCC56CCCN5CC(F)C6)nc4c3F)c12", "> 8.50"],
  ["CCN1CCN(Cc2ccc(Nc3ncc(F)c(-c4cc(F)c5nc(C)n(C(C)C)c5c4)n3)nc2)CC1 + C#Cc1c(F)ccc2cc(O)cc(-c3ncc4c(N5CC6CCC(C5)N6)nc(OCC56CCCN5CC(F)C6)nc4c3F)c12", "> 8.50"],
  ["C=CC(=O)Nc1cc(Nc2nccc(-c3cn(C)c4ccccc34)n2)c(OC)cc1N(C)CCN(C)C + C#Cc1c(F)ccc2cc(O)cc(-c3ncc4c(N5CC6CCC(C5)N6)nc(OCC56CCCN5CC(F)C6)nc4c3F)c12", "> 8.50"]
]}

* * *

- Tested on: 521955-158-R2-J5-PDC complex spheroids, viability
- experiment.notes: Anticancer human tumor 521955-158-R2-J5-PDC cell line growth inhibition [RAS];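 further: compound exposure lasted seven days before the viability read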;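 on viability, T/C: spheroids also contain HUVEC endothelial cells and mesenchymal stem cells as stroma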
- condition.label: second compound 10 µM; first compound 0.01 µM; stronger effect = lower value
# maps each entry to its viability, T/C

{"columns": ["compound", "viability, T/C / %"],
 "data": [
  ["Nc1ccn(C2OC(CO)C(O)C2(F)F)c(=O)n1 (stereo unspecified) + C#Cc1c(F)ccc2cc(O)cc(-c3ncc4c(N5CC6CCC(C5)N6)nc(OCC56CCCN5CC(F)C6)nc4c3F)c12", 32.7],
  ["C=CC(=O)N1CCN(c2nc(OCC3CCCN3C)nc3c(F)c(-c4nc(N)cc(C)c4C(F)(F)F)c(Cl)cc23)C(C)C1 (stereo unspecified) + C#Cc1c(F)ccc2cc(O)cc(-c3ncc4c(N5CC6CCC(C5)N6)nc(OCC56CCCN5CC(F)C6)nc4c3F)c12", 56.9],
  ["CC(C)n1nc(-c2ccc3oc(N)nc3c2)c2c(N)ncnc21 + C#Cc1c(F)ccc2cc(O)cc(-c3ncc4c(N5CC6CCC(C5)N6)nc(OCC56CCCN5CC(F)C6)nc4c3F)c12", 17],
  ["C=CC(=O)Nc1cc(Nc2nccc(-c3cn(C)c4ccccc34)n2)c(OC)cc1N(C)CCN(C)C + C#Cc1c(F)ccc2cc(O)cc(-c3ncc4c(N5CC6CCC(C5)N6)nc(OCC56CCCN5CC(F)C6)nc4c3F)c12", 43.9],
  ["CCN1CCN(Cc2ccc(Nc3ncc(F)c(-c4cc(F)c5nc(C)n(C(C)C)c5c4)n3)nc2)CC1 + C#Cc1c(F)ccc2cc(O)cc(-c3ncc4c(N5CC6CCC(C5)N6)nc(OCC56CCCN5CC(F)C6)nc4c3F)c12", 37.2],
  ["O=C(c1ccc(F)c(F)c1Nc1ccc(I)cc1F)N1CC(O)([C@@H]2CCCCN2)C1 + C#Cc1c(F)ccc2cc(O)cc(-c3ncc4c(N5CC6CCC(C5)N6)nc(OCC56CCCN5CC(F)C6)nc4c3F)c12", 29.1]
]}

* * *

- Test system: 521955-158-R2-J5-PDC complex spheroids, viability
- experiment.notes: Anticancer human tumor 521955-158-R2-J5-PDC cell line growth inhibition [RAS];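 further: compound exposure lasted seven days before the viability read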;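 on viability, T/C: spheroids also contain HUVEC endothelial cells and mesenchymal stem cells as stroma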
- condition.label: second compound 0.0316 µM; first compound 0.000949 µM; stronger effect = lower value
# maps each entry to its viability, T/C
parameter.measured: viability, T/C (%)

{"columns": ["compound", "unit.of.measurement", "observed.result"],
 "data": [
  ["CC1(C)CCC(Nc2ncc(C(F)(F)F)c(-c3c[nH]c4c(P(C)(C)=O)c(C#N)ccc34)n2)CN1 (centres undefined) + C#Cc1c(F)ccc2cc(O)cc(-c3ncc4c(N5CC6CCC(C5)N6)nc(OCC56CCCN5CC(F)C6)nc4c3F)c12", "%", 43.7],
  ["CCc1c2c(nc3ccc(O)cc13)-c1cc3c(c(=O)n1C2)COC(=O)[C@]3(O)CC + C=CC(=O)N1CCN(c2nc(OCC3CCCN3C)nc3c(F)c(-c4nc(N)cc(C)c4C(F)(F)F)c(Cl)cc23)C(C)C1", "%", 72.5],
  ["CCc1c2c(nc3ccc(O)cc13)-c1cc3c(c(=O)n1C2)COC(=O)[C@]3(O)CC + C#Cc1c(F)ccc2cc(O)cc(-c3ncc4c(N5CC6CCC(C5)N6)nc(OCC56CCCN5CC(F)C6)nc4c3F)c12", "%", 68.1],
  ["CC1(C)CCC(Nc2ncc(C(F)(F)F)c(-c3c[nH]c4c(P(C)(C)=O)c(C#N)ccc34)n2)CN1 (centres undefined) + C=CC(=O)N1CCN(c2nc(OCC3CCCN3C)nc3c(F)c(-c4nc(N)cc(C)c4C(F)(F)F)c(Cl)cc23)C(C)C1", "%", 75.4]
]}

* * *

# maps each entry to its viability, T/C
- System: 521955-158-R2-J5-PDC complex spheroids, viability
- experiment.notes: Anticancer human tumor 521955-158-R2-J5-PDC cell line growth inhibition [RAS];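 further: compound exposure lasted seven days before the viability read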;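 on viability, T/C: spheroids also contain HUVEC endothelial cells and mesenchymal stem cells as stroma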
- condition.label: compound 0.00316 µM; stronger effect = lower value

{"columns": ["molecule", "viability, T/C"],
 "data": [
  ["O=C(c1ccc(F)c(F)c1Nc1ccc(I)cc1F)N1CC(O)([C@@H]2CCCCN2)C1", "82% [middle of 4 runs]"],
  ["C=CC(=O)Nc1cc(Nc2nccc(-c3cn(C)c4ccccc34)n2)c(OC)cc1N(C)CCN(C)C", "101% [middle of 4 runs]"],
  ["Nc1ccn(C2OC(CO)C(O)C2(F)F)c(=O)n1 (stereo not given)", "101% [middle of 4 runs]"],
  ["CC(C)n1nc(-c2ccc3oc(N)nc3c2)c2c(N)ncnc21", "96.2% [middle of 4 runs]"],
  ["CCN1CCN(Cc2ccc(Nc3ncc(F)c(-c4cc(F)c5nc(C)n(C(C)C)c5c4)n3)nc2)CC1", "102% [middle of 4 runs]"]
]}

* * *

- Tested on: 521955-158-R2-J5-PDC complex spheroids, viability
- experiment.notes: Anticancer human tumor 521955-158-R2-J5-PDC cell line growth inhibition [RAS];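 further: compound exposure lasted seven days before the viability read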;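 on viability, T/C: spheroids also contain HUVEC endothelial cells and mesenchymal stem cells as stroma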
- condition.label: second compound 0.003 µM; first compound 3.16 µM; stronger effect = lower value
# if measured viability, T/C < 50%: t  # else: f

{"columns": ["compound", "answer.label"],
 "data": [
  ["CC(Nc1ccc2c(c1)OCCn1cc(N3C(=O)OCC3C(F)F)nc1-2)C(N)=O (stereo not drawn) + CCn1c(-c2cc(N3CCN(C)CC3)cnc2C(C)OC)c2c3cc(ccc31)-c1csc(n1)CC(NC(=O)C1CC1C)C(=O)N1CCCC(N1)C(=O)OCC(C)(C)C2", "t"],
  ["CC(Nc1ccc2c(c1)OCCn1cc(N3C(=O)OCC3C(F)F)nc1-2)C(N)=O (stereo not drawn) + CCn1c(-c2cccnc2C(C)OC)c2c3cc(ccc31)N1CCOC(CC(NC(=O)C(C(C)C)N(C)C(=O)C3(F)CCN(C(=O)C#CC(C)(C)N(C)C)CC3)C(=O)N3CCCC(N3)C(=O)OCC(C)(C)C2)C1", "f"],
  ["C[C@@H](NC(=O)c1ncnc(N)c1Cl)c1ncc(C(=O)Nc2cc(C(F)(F)F)c(Cl)cn2)s1 + CCn1c(-c2cccnc2C(C)OC)c2c3cc(ccc31)N1CCOC(CC(NC(=O)C(C(C)C)N(C)C(=O)C3(F)CCN(C(=O)C#CC(C)(C)N(C)C)CC3)C(=O)N3CCCC(N3)C(=O)OCC(C)(C)C2)C1", "f"],
  ["CCC(CC)c1cc(NC2CCC(N)C2)n2nccc2n1 (stereo not drawn) + CCn1c(-c2cccnc2C(C)OC)c2c3cc(ccc31)N1CCOC(CC(NC(=O)C(C(C)C)N(C)C(=O)C3(F)CCN(C(=O)C#CC(C)(C)N(C)C)CC3)C(=O)N3CCCC(N3)C(=O)OCC(C)(C)C2)C1", "t"],
  ["CC1(O)CCCC1n1c(=O)c(C(F)F)cc2cnc(NC3CCN(S(C)(=O)=O)CC3)nc21 (stereo not drawn) + CCn1c(-c2cccnc2C(C)OC)c2c3cc(ccc31)N1CCOC(CC(NC(=O)C(C(C)C)N(C)C(=O)C3(F)CCN(C(=O)C#CC(C)(C)N(C)C)CC3)C(=O)N3CCCC(N3)C(=O)OCC(C)(C)C2)C1", "f"],
  ["Cc1nc(N2CCC3(CC2)COC(C)C3N)c(CO)nc1Sc1ccnc(N)c1Cl (stereo not drawn) + CCn1c(-c2cc(N3CCN(C)CC3)cnc2C(C)OC)c2c3cc(ccc31)-c1csc(n1)CC(NC(=O)C1CC1C)C(=O)N1CCCC(N1)C(=O)OCC(C)(C)C2", "t"]
]}
